Where these numbers come from: PubChem BioAssay AID1851

target: Cytochrome P450 2C9 (Homo sapiens); test: Cytochrome panel assay with activity outcomes; conditions: recombinant CYP, pro-luciferin dealkylation, luminescence, p450-cyp2c9; series mostly up to 57.1 µM
The whole screen tested about 16,000 compounds, of which about 4,000 (25%) were called active. Roughly 26% stayed inconclusive and do not appear here. Calls follow the shape of the dose curve; as a rule, active = well fitted curve in the direction sought with a large enough effect; inconclusive = small, poorly fitted or top-dose-only effect, or effect the other way; inactive = no such curve, though single readings can be large or run the other way. The list is a sample of the results.
Thanks in advance; please answer with one of these: active, inactive

CCOC(=O)C1=C(CSc2nc3ccccc3s2)NC(=O)NC1c1cc(C)ccc1C (stereo not drawn) = active

[Q] What outcome does the record of this test show for `NC(=O)Nn1c(CCC(=O)O)ccc1-c1ccc(F)cc1` ?
[A] inactive

[Q] // param item: `COc1cccc(C(=O)N(Cc2ccccc2)Cc2cc3cc4c(cc3[nH]c2=O)OCCO4)c1` ; yields the recorded call
[A] active

[Q] # outcome recorded in this test, key = `CCCN1CCN(C(=O)CN2C(=O)CC(C)(C)S(=O)(=O)c3ccccc32)CC1`
[A] inactive

[Q] In this assay, the call recorded for `COc1n[nH]c2nncnc12` was what?
[A] inactive

[Q] Just curious, what result did `O=C(O)CC/C=C\C[C@@H]1CO[C@H](c2ccccc2Cl)O[C@@H]1c1ccccc1O` get here?
[A] inactive

[Q] What is the recorded call for this molecule in the test? `CCc1cc2c(=O)c(-c3cnn(-c4ccccc4)c3)coc2c(CN2CCOCC2)c1O`
[A] active

====

target: Cytochrome P450 2C9 (Homo sapiens) (UniProt P11712); experiment: Cytochrome panel assay with activity outcomes; settings: recombinant CYP, pro-luciferin dealkylation, luminescence, p450-cyp2c9; series mostly up to 57.1 µM
Sequence (P11712 whole entry, looked up): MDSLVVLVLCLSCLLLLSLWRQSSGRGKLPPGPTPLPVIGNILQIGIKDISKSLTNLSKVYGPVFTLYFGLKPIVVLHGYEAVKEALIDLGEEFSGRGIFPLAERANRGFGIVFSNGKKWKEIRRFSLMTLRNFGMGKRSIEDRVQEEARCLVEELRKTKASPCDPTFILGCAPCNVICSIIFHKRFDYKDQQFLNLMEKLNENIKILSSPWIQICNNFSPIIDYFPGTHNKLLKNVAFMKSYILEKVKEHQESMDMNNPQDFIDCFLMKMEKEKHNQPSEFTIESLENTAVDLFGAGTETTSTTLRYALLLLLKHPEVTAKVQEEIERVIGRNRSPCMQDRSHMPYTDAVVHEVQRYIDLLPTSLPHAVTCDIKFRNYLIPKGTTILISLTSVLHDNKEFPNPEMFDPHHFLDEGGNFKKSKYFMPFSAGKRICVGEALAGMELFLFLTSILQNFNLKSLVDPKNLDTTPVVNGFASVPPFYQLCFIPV
Among all 16,000 compounds or so, about 4,000 (25%) were called active. Another 26% or so got no clear call; they are omitted. Calls come from the whole dose curve; as a rule, active = well fitted curve in the direction sought with a large enough effect; inconclusive = small, poorly fitted or top-dose-only effect, or effect the other way; inactive = no such curve, though single readings can be large or run the other way. The list is a sample of the results.
Result category, one only: active, inactive

Reference set (3 entries):
O=C1CC(N2CCN(C(c3ccccc3)c3ccccc3)CC2)C(=O)N1Cc1ccc(N2CCCC2=O)cc1 (stereo not given) = active
COC(=O)[C@@]1(Cc2ccccc2)[C@H]2c3cc(C(=O)N4CCCC4)n(Cc4ccc(O)c(OC)c4)c3C[C@H]2CN1C(=O)c1ccccc1 = active
COc1ccccc1CN1CCCC2(CCN(C(=O)c3c(C)noc3C)CC2)C1 = inactive

// switching to the query molecule
[Q] Per the assay record, what outcome was assigned to `C[C@@H](C(=O)O)[C@H]1C[C@]1(C)[C@H](NC(=O)OCc1ccccc1)c1ccccc1` ?
[A] active

====

molecular target: Cytochrome P450 2C9 (Homo sapiens) (UniProt P11712); assay: Cytochrome panel assay with activity outcomes; conditions: recombinant CYP, pro-luciferin dealkylation, luminescence, p450-cyp2c9; series mostly up to 57.1 µM
Hit rate of the full screen: of about 16,000 compounds, about 4,000 (25%) were called active. Another 26% or so got no clear call; they are omitted. The call rests on the fitted dose curve; in most records, active means well fitted curve in the direction sought with a large enough effect; inconclusive means small, poorly fitted or top-dose-only effect, or effect the other way; inactive means no such curve, though single readings can be large or run the other way. The list is a sample of the results.
Use one of these outcomes when replying: active, inactive

Below are worked cases with known answers.
CN(C(=O)COc1cccc(Br)c1)C1CCS(=O)(=O)C1 (centres undefined) = inactive
CCNc1ncc2nc(-c3ccc(F)cc3)c(=O)n(CCOC)c2n1 = inactive
CCOc1ccc(CN(C(=O)c2oc3ccccc3c2C)C2CCS(=O)(=O)C2)cc1 (centres undefined) = active
CC(=O)c1cc2ccccc2oc1=O = inactive
Cc1cccc(NC(=S)Nc2ccc(Br)cc2)c1 = inactive

[Q] Test call for this compound, please: `O=c1onc2n1-c1cc(Br)ccc1OC2`
[A] inactive

[Q] Please state the recorded outcome for this compound: `CCC(=O)Nc1ccc2c(c1)C(=O)c1ccccc1C2=O`
[A] active

[Q] Which outcome was entered for the compound `O=c1c2c(n3cnnc3n1-c1ccccc1)-c1ccccc1CC21CCCCC1` in this test?
[A] inactive

[Q] Could you kindly confirm the outcome this assay logged for CCc1ccc(CN(C(=O)c2cc3ccccc3oc2=O)C2CCS(=O)(=O)C2)cc1 (centres undefined) ?
[A] active

[Q] Test call for this compound, please: `Cc1nc2cnc(N(C)C)nc2n(Cc2cccs2)c1=O`
[A] inactive

[Q] # lookup: test call for `C/C(=N\NC(=S)Nc1cccc(C)c1)c1ccccc1`
[A] active

[Q] Recorded test outcome, item `CN(C)c1ncc2nc(-c3cc(F)cc(F)c3)c(=O)n(CCc3ccccc3)c2n1`
[A] inactive

[Q] Please share the test call associated with Cc1ccc(CN(C(=O)c2cc3ccccc3oc2=O)C2CCS(=O)(=O)C2)cc1 (centres undefined) .
[A] active

[Q] Could you check what this test reported for O=C(c1sc2ccccc2c1Cl)N(Cc1ccccc1)C1CCS(=O)(=O)C1 (centres undefined) ?
[A] active

[Q] Field: outcome | Entry: `O=C(CN1C(=O)NC2(CCCC2)C1=O)NCCC1=CCCCC1`
[A] inactive

[Q] Tell me the recorded outcome of this test for OC1(c2ccc(OC(F)F)cc2)CSC(=Nc2cccnc2)N1C1CC1 (centres undefined) .
[A] active
